# assayed-target: Steroidogenic factor 1 (Homo sapiens) (UniProt Q13285)
# Sequence (Q13285 whole entry, looked up): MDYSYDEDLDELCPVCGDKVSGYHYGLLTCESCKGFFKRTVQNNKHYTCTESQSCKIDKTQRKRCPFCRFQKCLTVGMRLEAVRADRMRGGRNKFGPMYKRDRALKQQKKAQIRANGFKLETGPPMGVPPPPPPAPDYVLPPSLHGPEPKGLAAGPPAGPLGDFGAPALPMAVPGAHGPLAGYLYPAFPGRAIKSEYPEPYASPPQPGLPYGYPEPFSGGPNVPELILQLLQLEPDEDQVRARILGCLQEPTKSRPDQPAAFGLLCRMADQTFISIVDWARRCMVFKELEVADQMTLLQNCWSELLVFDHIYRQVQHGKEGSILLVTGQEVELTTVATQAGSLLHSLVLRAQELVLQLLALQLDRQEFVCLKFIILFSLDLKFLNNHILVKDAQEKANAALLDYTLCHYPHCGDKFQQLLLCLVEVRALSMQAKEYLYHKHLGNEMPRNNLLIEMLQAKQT
# experiment-description: SF1 (NR5A1) inverse agonists, counter-screen for LRH-1 inverse agonist project, cell-based, luminescence, high throughput (AID 651614);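 also: cells cotransfected with StAR promoter reporter and SF1 expression vector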
# condition-parameters: cell-based SF1 luciferase reporter, at 3.6 µM
Calls of active or inactive are those of the source. Rule as the data show it: active = inhibition above about 44%; inactive = the rest.
Your reply should match one of these outcome classes. active, inactive

Solved entries (count: 4):
CCc1cc(=O)oc2cc(C)cc(OCC(=O)NC3CC3)c12; active
O=C(NCCc1c[nH]c2ccccc12)c1ccc([N+](=O)[O-])o1; active
O=C(Nc1nonc1NC(=O)c1cccs1)c1cccs1; active
CC(=O)/C(=N/Nc1ccccc1[N+](=O)[O-])N1CCCc2ccccc21; active

Tell me the recorded outcome of this test for COc1ccc(N2CC(C(=O)N/N=C/c3ccc(C)cc3)CC2=O)cc1 (stereo unspecified) .
inactive

Given CCCCC(=O)NC(c1ccc(OC)cc1)c1ccc2cccnc2c1O (stereo unspecified) , state the outcome it received in this test.
inactive
